Reference for the values: ChEMBL document CHEMBL2429758

Assign fold change (FC) to each entry below.
- STUDY_SYSTEM: Nuclear factor erythroid 2-related factor 2 (Homo sapiens)
- PROTOCOL_DESCRIPTION: Induction of Nrf2-mediated ARE activity in human HepG2-ARE-C8 cells at 0.01 uM after 12 hrs by luciferase reporter gene assay relative to control
- Assay type: cell-based
One number for each entry.

Study these solved cases before continuing.
[[record]]
compound = "COc1cc2c(cc1OC)C1CN/C(=C\\C(=O)c3cccc(Cl)c3)C(=O)N1CC2 (stereo unspecified)"
observation_type = "fold change (FC)"
result_number = 1.41

[[record]]
compound = "O=C(/C=C1\\NCC2c3ccccc3CCN2C1=O)c1ccccc1F (stereo unspecified)"
observation_type = "fold change (FC)"
result_number = 2.5

[[record]]
compound = "COc1ccc(C(=O)/C=C2\\NCC3c4ccccc4CCN3C2=O)cc1OC (stereo unspecified)"
observation_type = "fold change (FC)"
result_number = 1.52

[[record]]
compound = "COc1ccc2c(c1)CCN1C(=O)/C(=C/C(=O)c3cccc(F)c3)NCC21 (stereo unspecified)"
observation_type = "fold change (FC)"
result_number = 1.83

[[record]]
compound = "O=C(/C=C1\\NCC2c3ccccc3CCN2C1=O)c1cccc(Br)c1 (stereo unspecified)"
observation_type = "fold change (FC)"
result_number = 3.1

[[record]]
compound = "O=C(/C=C1\\NCC2c3ccccc3CCN2C1=O)c1ccc(F)cc1 (stereo unspecified)"
observation_type = "fold change (FC)"
result_number = 2.58


Batch request: fold change (FC) for each of the following compounds.
1. O=C(/C=C1\NCC2c3ccccc3CCN2C1=O)c1cccc(C(F)(F)F)c1 (stereo unspecified)
2. COc1ccc(C(=O)/C=C2\NCC3c4ccccc4CCN3C2=O)cc1 (stereo unspecified)
3. COc1cc2c(cc1OC)C1CN/C(=C\C(=O)c3cccc([N+](=O)[O-])c3)C(=O)N1CC2 (stereo unspecified)
4. COc1cccc(C(=O)/C=C2\NCC3c4cc(OC)c(OC)cc4CCN3C2=O)c1 (stereo unspecified)
5. COc1cccc2c1CCN1C(=O)/C(=C/C(=O)c3cccc(F)c3)NCC21 (stereo unspecified)
6. COc1cc2c(cc1OC)C1CN/C(=C\C(=O)c3cccc(F)c3)C(=O)N1CC2 (stereo unspecified)
7. O=C(/C=C1\NCC2c3ccccc3CCN2C1=O)c1cccc(Cl)c1 (stereo unspecified)
8. O=C(/C=C1\NCC2c3ccccc3CCN2C1=O)c1ccc(Cl)cc1Cl (stereo unspecified)

Result:
1: 2.22; 2: 1.15; 3: 1.31; 4: 1.45; 5: 0.79; 6: 2.31; 7: 1.94; 8: 1.68
